EXPERIMENTAL_TARGET: human GPR119 (Homo sapiens, UniProt Q8TDV5)
Construct: expressed in transfected cells; host or cells: HEK 293s
Sequence (Q8TDV5 1-335): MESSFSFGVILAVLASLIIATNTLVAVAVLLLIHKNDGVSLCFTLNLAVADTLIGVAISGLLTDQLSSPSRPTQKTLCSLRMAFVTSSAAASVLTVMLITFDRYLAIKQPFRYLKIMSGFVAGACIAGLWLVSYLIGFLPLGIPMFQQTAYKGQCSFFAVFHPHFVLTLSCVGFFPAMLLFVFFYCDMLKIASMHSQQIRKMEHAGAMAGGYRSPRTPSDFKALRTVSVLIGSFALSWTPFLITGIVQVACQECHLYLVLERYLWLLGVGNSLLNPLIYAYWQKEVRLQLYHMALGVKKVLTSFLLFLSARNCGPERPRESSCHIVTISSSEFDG
MEASUREMENT_DESCRIPTION: Cyclic AMP (HTRF cAMP) assay for human GPR119, Method A
Format: cell-based
EXPERIMENTAL_SETUP: HEK293S, 0.75 h; Method A; HEK 293s cells over-expressing human GPR119; percent effect at top concentration 30 μM relative to maximum (50 μM Oleoylethanolamide) and minimum (1% DMSO) controls
ASSAY_METRIC: activation at 30 µM (%)

C[C@@H]1CN(C(=O)OC(C)(C)C)CCN1c1ncc(OCc2ccncc2)cn1 ... 68
CC(C)(C)OC(=O)N1CCN(c2ncc(OCc3ccc(NC(=O)C(C)(C)C)cc3)cn2)CC1 ... 80

(A) CC(C)OC(=O)N1CCN(c2ncc(OCc3ccc(S(C)(=O)=O)cc3)cn2)[C@H](C)C1
(B) CC(C)(C)OC(=O)N1CCN(c2ncc(OCc3ccc(S(C)(=O)=O)cc3F)cn2)CC1
[Q] Please tell me which of the two, A or B , has the higher reported activation at 30 µM value. Please reply using the label of the selected record.
[A] B

---

EXPERIMENTAL_TARGET: human GPR119 (Homo sapiens)
Construct: expressed in transfected cells; host or cells: HEK 293s
MEASUREMENT_DESCRIPTION: Cyclic AMP (HTRF cAMP) assay for human GPR119, Method A
Assay type: cell-based
EXPERIMENTAL_SETUP: HEK293S, 0.75 h; Method A; HEK 293s cells over-expressing human GPR119; percent effect at top concentration 30 μM relative to maximum (50 μM Oleoylethanolamide) and minimum (1% DMSO) controls
ASSAY_METRIC: activation at 30 µM (%)

Cc1cc(COc2cnc(N3CCN(C(=O)OC(C)(C)C)CC3)nc2)ccc1NC(=O)C(C)(C)C [Example 13] ... 41
CC(C)(C)OC(=O)N1C[C@@H]2CC[C@H]1CN2c1ncc(OCc2ccc(S(C)(=O)=O)cc2)cn1 [Example 29] ... 36
C[C@@H]1CN(C(=O)OC2(C)CC2)CCN1c1ncc(OCc2ccc(S(C)(=O)=O)cc2)cn1 [Example 61] ... 91

(a) C[C@@H]1CN(C(=O)OC(C)(C)C#N)CCN1c1ncc(OCc2ccc(S(C)(=O)=O)cc2)cn1 [Example 71]
(b) CN(C)CCN(C)C(=O)c1ccc(COc2cnc(N3CCN(C(=O)OC(C)(C)C)CC3)nc2)cc1 [Example 49]
[Q] Please tell me which of the two, a or b , has the higher reported activation at 30 µM value. Please reply using the label of the selected record.
[A] a
(a: 73%, b: 27%)
